Reported values of metabolised at 2 h for individual entries
- procedure-summary: Conversion (release) of prodrug salts to parent compound in mouse plasma
- Assay type: in vitro ADME
- recorded-conditions: mouse, plasma, 37 °C, 2 h, read-out: Release rate (conversion to Compound 83)
Please format your answer as a value with the unit trailing.

In [3]: df
Out[3]:
                         compound_structure  endpoint_result
0  CC1=C2CC[C@@](C)(OC(=O)N3CCCCC3)[C@@H]2[C@H]2OC(=O)[C@@H](CN3CCCC3)[C@@H]2CC1            13.8%

Now consider a different compound.
// metabolised at 2 h lookup, key: CC1=C2CC[C@@](C)(OC(=O)N3CCCCC3)[C@@H]2[C@H]2OC(=O)[C@@H](CN(C)C)[C@@H]2CC1 14%

====

- procedure-summary: Conversion (release) of prodrug salts to parent compound in mouse plasma
- Type: in vitro ADME
- recorded-conditions: mouse, plasma, 37 °C, 12 h, read-out: Release rate (conversion to Compound 82)
quantity-kind: metabolised at 12 h (%)
The answer is to be given in %; state only the numeric part.

Given CC1=C2CC[C@@](C)(OC(=O)N3CCCC3)[C@@H]2[C@H]2OC(=O)[C@@H](CN3CCCC3)[C@@H]2CC1 [Compound 103] , state its recorded metabolised at 12 h. 53.4

====

- procedure-summary: Conversion (release) of prodrug salts to parent compound in HEPES buffer pH 7.4
- Type: in vitro ADME
- recorded-conditions: HEPES pH 7.4, 37 °C, 8 h; 480 min
Below: a set of entries, each annotated with reported Release rate (conversion to Compound 1).
Just the number please, in %, no unit attached.

Some entries whose results are on file:
                                   compound                            quantity_kind  unit  endpoint_result
0  CN(C)C[C@@H]1C(=O)O[C@H]2[C@H]1CC[C@@]1(C)C[C@]13CC[C@@](C)(O)[C@H]23 [Compound 42]  Release rate (conversion to Compound 1)     %             42.8
1  CN(C)C[C@@H]1C(=O)O[C@H]2[C@H]1CC[C@@]1(C)C[C@]13CC[C@@](C)(O)[C@H]23 [Compound 20]  Release rate (conversion to Compound 1)     %             44.3
2  CN(C)C[C@@H]1C(=O)O[C@H]2[C@H]1CC[C@@]1(C)C[C@]13CC[C@@](C)(O)[C@H]23 [Compound 21]  Release rate (conversion to Compound 1)     %             38.9
3  CN(C)C[C@@H]1C(=O)O[C@H]2[C@H]1CC[C@@]1(C)C[C@]13CC[C@@](C)(O)[C@H]23 [Compound 41]  Release rate (conversion to Compound 1)     %             43.4

// moving on: another record for Release rate (conversion to Compound 1)
Reported Release rate (conversion to Compound 1), compound CN(C)C[C@@H]1C(=O)O[C@H]2[C@H]1CC[C@@]1(C)C[C@]13CC[C@@](C)(O)[C@H]23 [Compound 40] : ____ 44.0

====

Form field: Release rate (conversion to Compound 1) (one value per entry).
- procedure-summary: Conversion (release) of prodrug salts to parent compound in HEPES buffer pH 7.4
- Format: in vitro ADME
- recorded-conditions: HEPES pH 7.4, 37 °C, 1 h; 60 min
Response body: numeric value in %, unit text excluded.

In [3]: df
Out[3]:
                                   molecule  endpoint_result
0  CN(C)C[C@@H]1C(=O)O[C@H]2[C@H]1CC[C@@]1(C)C[C@]13CC[C@@](C)(O)[C@H]23 [Compound 21]              3.3
1  CN(C)C[C@@H]1C(=O)O[C@H]2[C@H]1CC[C@@]1(C)C[C@]13CC[C@@](C)(O)[C@H]23 [Compound 41]              7.0
2  CN(C)C[C@@H]1C(=O)O[C@H]2[C@H]1CC[C@@]1(C)C[C@]13CC[C@@](C)(O)[C@H]23 [Compound 42]              7.0

Form field: reported Release rate (conversion to Compound 1) of CN(C)C[C@@H]1C(=O)O[C@H]2[C@H]1CC[C@@]1(C)C[C@]13CC[C@@](C)(O)[C@H]23 [Compound 40] 6.8

Please look up its Release rate (conversion to Compound 1): CN(C)C[C@@H]1C(=O)O[C@H]2[C@H]1CC[C@@]1(C)C[C@]13CC[C@@](C)(O)[C@H]23 [Compound 39] 6.6

Need Release rate (conversion to Compound 1), item CN(C)C[C@@H]1C(=O)O[C@H]2[C@H]1CC[C@@]1(C)C[C@]13CC[C@@](C)(O)[C@H]23 [Compound 20] 6.2

====

- procedure-summary: Safety evaluation, mouse survival rate (30 days oral)
- Assay type: in vivo, C57BL/6 mice
- recorded-conditions: mouse, in vivo, female, 1000 mg/kg, oral
quantity-kind: survival at 720 h (%)
Please respond with the number in % and leave the unit unwritten.

Which value of survival at 720 h has been reported for CN(C)C[C@@H]1C(=O)O[C@H]2[C@H]1CC[C@@]1(C)C[C@]13CC[C@@](C)(O)[C@H]23 [Compound 20] in the records? 100

====

- procedure-summary: Conversion (release) of prodrug salts to parent compound in mouse plasma
- Type: in vitro ADME
- recorded-conditions: 37 °C, 12 h, 720 min
Listed below: Release rate (conversion to Compound 1) values for each entry.
Please respond with the number in % and leave the unit unwritten.

See these solved cases before continuing.
>>> df
                                   compound  endpoint_result
0  CN(C)C[C@@H]1C(=O)O[C@H]2[C@H]1CC[C@@]1(C)C[C@]13CC[C@@](C)(O)[C@H]23 [Compound 21]             55.4
1  CN(C)C[C@@H]1C(=O)O[C@H]2[C@H]1CC[C@@]1(C)C[C@]13CC[C@@](C)(O)[C@H]23 [Compound 42]             47.2
2  CN(C)C[C@@H]1C(=O)O[C@H]2[C@H]1CC[C@@]1(C)C[C@]13CC[C@@](C)(O)[C@H]23 [Compound 41]             54.8
3  CN(C)C[C@@H]1C(=O)O[C@H]2[C@H]1CC[C@@]1(C)C[C@]13CC[C@@](C)(O)[C@H]23 [Compound 40]             52.6

Looking for the measured Release rate (conversion to Compound 1) of CN(C)C[C@@H]1C(=O)O[C@H]2[C@H]1CC[C@@]1(C)C[C@]13CC[C@@](C)(O)[C@H]23 [Compound 20] , can you help? 62.9

====

A collection of molecules and their measured degraded at 12 h
- procedure-summary: Conversion (release) of prodrug salts to parent compound in HEPES buffer pH 7.4
- Type: in vitro ADME
- recorded-conditions: hepes buffer, pH 7.4, HEPES pH 7.4, 37 °C, 12 h; read-out: Release rate (conversion to Compound 1)
Give just the numeric value; % need not be written.

In [3]: df
Out[3]:
                                   molecule  unit  endpoint_result
0  CCCN(CCC)C[C@@H]1C(=O)O[C@H]2[C@H]1CC[C@@]1(C)C[C@]13CC[C@@](C)(O)[C@H]23 [Compound 29]     %             49.8
1  C[C@@]12CC[C@@H]3[C@H](OC(=O)[C@H]3CN3CCCCC3)[C@@H]3[C@]1(CC[C@@]3(C)O)C2 [Compound 24]     %               54
2  C[C@@]12CC[C@@H]3[C@H](OC(=O)[C@H]3CN3CCC4(CC3)CC4)[C@@H]3[C@]1(CC[C@@]3(C)O)C2 [Compound 37]     %             65.8
3  CCOC(=O)[C@@H]1CCCN1C[C@@H]1C(=O)O[C@H]2[C@H]1CC[C@@]1(C)C[C@]13CC[C@@](C)(O)[C@H]23 [Compound 23]     %             52.8

Look up degraded at 12 h for this molecule: C[C@@]12CC[C@@H]3[C@H](OC(=O)[C@H]3CN3CCOCC3)[C@@H]3[C@]1(CC[C@@]3(C)O)C2 [Compound 25] 51.8

GET /values?readout=degraded at 12 h&item= CN(C)C[C@@H]1C(=O)O[C@H]2[C@H]1CC[C@@]1(C)C[C@]13CC[C@@](C)(O)[C@H]23 [Compound 39] 54.3

# degraded at 12 h lookup, item C[C@@]12CC[C@@H]3[C@H](OC(=O)[C@H]3CN3CCNCC3)[C@@H]3[C@]1(CC[C@@]3(C)O)C2 [Compound 26] 55.6
